# Tested on: SK-OV3
# Method notes: In vitro analysis of benzodiazepine dimer derivatives, MTT cell viability
# Format: cell-based
# Experimental context: Homo sapiens, SK-OV-3, 144 h; MTT assay, 6 days incubation
Provide the reported IC50 of each item.
Please state the figure in nM; there is no need to write the unit.

Please supply the value of reported IC50 for the item `COc1cc2c(cc1OCc1cc(O)cc(COc3cc4c(cc3OC)C(=O)N3Cc5ccccc5C[C@H]3C=N4)c1)N=C[C@@H]1Cc3ccccc3CN1C2=O`
0.0596

Please supply the value of reported IC50 for the item `C=C1C[C@H]2C=Nc3cc(OCc4cc(O)cc(COc5cc6c(cc5OC)C(=O)N5CC(=C)C[C@H]5C=N6)c4)c(OC)cc3C(=O)N2C1`
0.175

Please supply the value of reported IC50 for the item `C=C1C[C@H]2C=Nc3cc(OCc4cncc(COc5cc6c(cc5OC)C(=O)N5CC(=C)C[C@H]5C=N6)c4)c(OC)cc3C(=O)N2C1`
0.074

Please supply the value of reported IC50 for the item `COc1cc2c(cc1OCc1cc(COc3cc4c(cc3OC)C(=O)N3Cc5ccccc5C[C@H]3C=N4)cc(CN(C)C)c1)N=C[C@@H]1Cc3ccccc3CN1C2=O`
0.0109
